biological target: human PCSK9 (Homo sapiens); assay: PCSK9 ligand binding TR-FRET assay (interference with binding of human PCSK9 to human LDLR); conditions: PCSK9 FRET assay, efficacy (Amax); 100% = 1 uM unlabeled human PCSK9, 0% = DMSO
Items are presented alongside their recorded Max % inhibition.
Form entry: value (%) — number only.

Worked examples, 3 compounds total:
* COC[C@@H]1NC(=O)[C@H](C)N(Cc2ccc(Cl)cc2Oc2ccc(-n3cnc(CN(C)C)c3C)cc2)C(=O)C[C@@H](Cc2ccccn2)C(=O)N(C)[C@H]2CCCC[C@@H]2NC(=O)C[C@H](Cc2ccc(Cl)cc2)N(C)C1=O | 104.44
* COC[C@@H]1NC(=O)[C@H](C)N(Cc2ccc(Cl)cc2Oc2ccc(-c3cnc4c(c3)CN(C(=O)[C@H]3CCNC3)CC4)cc2)C(=O)C[C@@H](Cc2ccccc2)C(=O)N(C)[C@@H](C)CNC(=O)C[C@H](Cc2ccc(Cl)cc2)N(C)C1=O | 70.99
* COC[C@@H]1NC(=O)[C@H](C)N(Cc2ccc(C(F)(F)F)cc2Oc2ccc(-c3cnc(CN4CCCC4)n3C)cc2)C(=O)C[C@@H](Cc2ccccc2)C(=O)N(C)[C@@H](C)CNC(=O)C[C@H](Cc2ccc(Cl)cc2)N(C)C1=O | 103.62

Continue with the compound presented below.
Note down Max % inhibition recorded for COC[C@@H]1NC(=O)[C@H](C)N(Cc2ccc(Cl)cc2Oc2ccc(-c3cnc(CN4CCCC4)n3C)cc2)C(=O)C[C@@H](Cc2ccc(F)cc2F)C(=O)N(C)[C@@H](C)CNC(=O)C[C@H](Cc2ccc(Cl)cc2)N(C)C1=O
98.82

* * *

biological target: human PCSK9 (Homo sapiens, UniProt Q8NBP7); test: PCSK9 ligand binding TR-FRET assay (interference with binding of human PCSK9 to human LDLR); conditions: PCSK9 FRET assay, efficacy (Amax); 100% = 1 uM unlabeled human PCSK9, 0% = DMSO
Sequence (Q8NBP7 153-692): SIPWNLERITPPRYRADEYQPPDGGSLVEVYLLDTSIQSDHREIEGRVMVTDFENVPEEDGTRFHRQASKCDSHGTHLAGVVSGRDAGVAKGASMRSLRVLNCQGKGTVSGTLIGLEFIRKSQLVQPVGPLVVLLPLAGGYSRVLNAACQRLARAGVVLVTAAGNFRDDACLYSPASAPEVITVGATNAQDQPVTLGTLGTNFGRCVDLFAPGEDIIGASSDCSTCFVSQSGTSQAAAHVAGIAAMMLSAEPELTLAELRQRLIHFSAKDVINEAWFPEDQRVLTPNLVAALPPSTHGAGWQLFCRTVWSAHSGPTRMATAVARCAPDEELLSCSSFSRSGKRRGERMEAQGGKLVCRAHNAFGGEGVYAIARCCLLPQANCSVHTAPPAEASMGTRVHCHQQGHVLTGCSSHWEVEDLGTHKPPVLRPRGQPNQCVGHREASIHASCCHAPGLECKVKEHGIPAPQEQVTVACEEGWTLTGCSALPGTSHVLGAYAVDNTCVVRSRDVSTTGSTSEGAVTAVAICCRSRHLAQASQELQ
Sequence (Q8NBP7 31-152 partner limits assumed): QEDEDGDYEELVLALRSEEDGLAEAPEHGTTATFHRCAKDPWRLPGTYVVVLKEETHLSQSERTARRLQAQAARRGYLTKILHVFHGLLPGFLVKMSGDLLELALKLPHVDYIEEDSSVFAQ
RECORDED_METRIC: Max % inhibition (%)
Form entry: value (%) — number only.

* COC[C@@H]1NC(=O)[C@H](CCCN2CC(F)(F)C(F)(F)C2)N(Cc2ccc(Cl)cc2Oc2ccc(-c3cnc(CN(C)C)n3C)cc2)C(=O)C[C@@H](Cc2ccccc2)C(=O)N(C)[C@H]2CCCC[C@@H]2NC(=O)C[C@H](Cc2ccc(Cl)cc2)N(C)C1=O [Compound 254] | 102.70

Continue with the molecule presented below.
Note down Max % inhibition recorded for COC[C@@H]1NC(=O)[C@H](C)N(Cc2ccc(C)cc2Oc2ccc(-c3cnc(CN(C)C)n3C)cc2)C(=O)C[C@@H](Cc2ccccc2)C(=O)N(C)[C@@H](C)CNC(=O)C[C@H](Cc2ccc(Cl)cc2)N(C)C1=O [Compound 240]
99.28

* * *

Items are presented alongside their recorded Max % inhibition.
molecular target: human PCSK9 (Homo sapiens); assay: PCSK9 ligand binding TR-FRET assay (interference with binding of human PCSK9 to human LDLR); conditions: PCSK9 FRET assay, efficacy (Amax); 100% = 1 uM unlabeled human PCSK9, 0% = DMSO
Form entry: value (%) — number only.

• C[C@H]1CNC(=O)C[C@H](Cc2ccc(Cl)cc2)N(C)C(=O)[C@H](CO)NC(=O)[C@H](C)N(Cc2ccc(Cl)cc2Oc2ccc3c(c2)C(=O)N(C2CCN(CC4CC4)CC2)C3)C(=O)C[C@@H](Cc2ccccc2)C(=O)N1C = 65.69

Continue with the molecule presented below.
Note down Max % inhibition recorded for COC[C@@H]1NC(=O)[C@H](CCO)N(Cc2ccc(Cl)cc2Oc2ccc(-c3cnc(CN(C)C)n3C)cc2)C(=O)C[C@@H](Cc2ccccc2)C(=O)N(C)[C@@H](C)CNC(=O)C[C@H](Cc2ccc(Cl)cc2)N(C)C1=O
87.74

Data provenance is patent US20230089867A1.
